Each recorded value in this set is attributed to paper PMC4140816.

# experimental-target: T1, c-Src SH3 domain (human, UniProt P12931-1 81-142)
# T1 construct: human c-Src, SH3 domain, residues 81-142; Cloned into pET21a through NdeI and XhoI; source: E. coli Rosetta 2(DE3)pLysS, purified (anion exchange, IMAC, SEC)
# protocol: SPR; Biacore 3000; biotinylated VSL12 immobilised to 80 RU on a streptavidin chip; domain proteins flowed in duplicate at 25°C in HBS-EP (10 mM HEPES pH 7.4, 150 mM NaCl, 3 mM EDTA, 0.05% P20); 180 s association, 300 s dissociation; double referenced; kinetic fit, 1:1 Langmuir model
# particulars: both partners purified
Ends that are not written are not given here.
property: Kd
Answer as a quantity: numeral, then unit.

Task item: For VSLARRPLPPLP (also: biotin (site not given here), Biotinylated for immobilisation in SPR; source: synthetic peptide (University of Pittsburgh Peptide Synthesis Core)) [VSL12 peptide] , what is its reported Kd?
Reply: 3.42 µM
